Reported values of MFI for individual entries
- target-of-assay: T1, human CTLA-4, full-length, expressed on transfected Expi293 cells (human, UniProt P16410 36-223)
- T1 construct: whole, on cells
- T1 sequence (P16410 36-223): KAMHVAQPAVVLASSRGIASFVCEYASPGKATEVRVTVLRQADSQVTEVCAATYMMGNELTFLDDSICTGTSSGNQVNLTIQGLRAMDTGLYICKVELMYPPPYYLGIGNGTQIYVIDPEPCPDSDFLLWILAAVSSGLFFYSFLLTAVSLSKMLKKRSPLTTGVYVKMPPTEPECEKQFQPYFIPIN
- assay-overview: flow cytometry, 100 nM, Expi293 cells with human CTLA-4
Express it in MFI; write the number only.

Example cases with answers are listed next.
binder | measured-quantity | value-observed
variant ICOSL IgV-Fc fusion N57Q/Q100P (Fc fusion) DTQEKEVRAMVGSDVELSCACPEGSRFDLNDVYVYWQTSESKTVVTYHIPQNSSLEQVDSRYRNRALMSPAGMLRGDFSLRLFNVTPQDEQKFHCLVLSPSLGFQEVLSVEVTLHVAANFSVGSGGGGSEPKSSDKTHTCPPCPAPEAEGAPSVFLFPPKPKDTLMISRTPEVTCVVVDVSHEDPEVKFNWYVDGVEVHNAKTKPREEQYNSTYRVVSVLTVLHQDWLNGKEYKCKVSNKALPAPIEKTISKAKGQPREPQVYTLPPSREEMTKNQVSLTCLVKGFYPSDIAVEWESNGQPENNYKTTPPVLDSDGSFFLYSKLTVDKSRWQQGNVFSCSVMHEALHNHYTQKSLSLSPG | MFI | 69100
variant ICOSL IgV-Fc fusion N52S/N57Y/Q100S (Fc fusion) DTQEKEVRAMVGSDVELSCACPEGSRFDLNDVYVYWQTSESKTVVTYHIPQSSSLEYVDSRYRNRALMSPAGMLRGDFSLRLFNVTPQDEQKFHCLVLSSSLGFQEVLSVEVTLHVAANFSVGSGGGGSEPKSSDKTHTCPPCPAPEAEGAPSVFLFPPKPKDTLMISRTPEVTCVVVDVSHEDPEVKFNWYVDGVEVHNAKTKPREEQYNSTYRVVSVLTVLHQDWLNGKEYKCKVSNKALPAPIEKTISKAKGQPREPQVYTLPPSREEMTKNQVSLTCLVKGFYPSDIAVEWESNGQPENNYKTTPPVLDSDGSFFLYSKLTVDKSRWQQGNVFSCSVMHEALHNHYTQKSLSLSPG | MFI | 205000
variant ICOSL IgV-Fc fusion N52S/N57H/Q100E (Fc fusion) DTQEKEVRAMVGSDVELSCACPEGSRFDLNDVYVYWQTSESKTVVTYHIPQSSSLEHVDSRYRNRALMSPAGMLRGDFSLRLFNVTPQDEQKFHCLVLSESLGFQEVLSVEVTLHVAANFSVGSGGGGSEPKSSDKTHTCPPCPAPEAEGAPSVFLFPPKPKDTLMISRTPEVTCVVVDVSHEDPEVKFNWYVDGVEVHNAKTKPREEQYNSTYRVVSVLTVLHQDWLNGKEYKCKVSNKALPAPIEKTISKAKGQPREPQVYTLPPSREEMTKNQVSLTCLVKGFYPSDIAVEWESNGQPENNYKTTPPVLDSDGSFFLYSKLTVDKSRWQQGNVFSCSVMHEALHNHYTQKSLSLSPG | MFI | 302000
wild-type ICOSL IgV-Fc fusion (Fc fusion, also called WT ICOSL) DTQEKEVRAMVGSDVELSCACPEGSRFDLNDVYVYWQTSESKTVVTYHIPQNSSLENVDSRYRNRALMSPAGMLRGDFSLRLFNVTPQDEQKFHCLVLSQSLGFQEVLSVEVTLHVAANFSVGSGGGGSEPKSSDKTHTCPPCPAPEAEGAPSVFLFPPKPKDTLMISRTPEVTCVVVDVSHEDPEVKFNWYVDGVEVHNAKTKPREEQYNSTYRVVSVLTVLHQDWLNGKEYKCKVSNKALPAPIEKTISKAKGQPREPQVYTLPPSREEMTKNQVSLTCLVKGFYPSDIAVEWESNGQPENNYKTTPPVLDSDGSFFLYSKLTVDKSRWQQGNVFSCSVMHEALHNHYTQKSLSLSPG | MFI | 330000
variant ICOSL IgV-Fc fusion N52R/N57L/Q100A (Fc fusion) DTQEKEVRAMVGSDVELSCACPEGSRFDLNDVYVYWQTSESKTVVTYHIPQRSSLELVDSRYRNRALMSPAGMLRGDFSLRLFNVTPQDEQKFHCLVLSASLGFQEVLSVEVTLHVAANFSVGSGGGGSEPKSSDKTHTCPPCPAPEAEGAPSVFLFPPKPKDTLMISRTPEVTCVVVDVSHEDPEVKFNWYVDGVEVHNAKTKPREEQYNSTYRVVSVLTVLHQDWLNGKEYKCKVSNKALPAPIEKTISKAKGQPREPQVYTLPPSREEMTKNQVSLTCLVKGFYPSDIAVEWESNGQPENNYKTTPPVLDSDGSFFLYSKLTVDKSRWQQGNVFSCSVMHEALHNHYTQKSLSLSPG | MFI | 403000
variant ICOSL IgV-Fc fusion N52T/N57H/Q100S (Fc fusion) DTQEKEVRAMVGSDVELSCACPEGSRFDLNDVYVYWQTSESKTVVTYHIPQTSSLEHVDSRYRNRALMSPAGMLRGDFSLRLFNVTPQDEQKFHCLVLSSSLGFQEVLSVEVTLHVAANFSVGSGGGGSEPKSSDKTHTCPPCPAPEAEGAPSVFLFPPKPKDTLMISRTPEVTCVVVDVSHEDPEVKFNWYVDGVEVHNAKTKPREEQYNSTYRVVSVLTVLHQDWLNGKEYKCKVSNKALPAPIEKTISKAKGQPREPQVYTLPPSREEMTKNQVSLTCLVKGFYPSDIAVEWESNGQPENNYKTTPPVLDSDGSFFLYSKLTVDKSRWQQGNVFSCSVMHEALHNHYTQKSLSLSPG | MFI | 378000

Moving on to the next binder.
[Q] Please give measured MFI of the following entry: variant ICOSL IgV-Fc fusion N52S/N57Y/Q100V (Fc fusion) DTQEKEVRAMVGSDVELSCACPEGSRFDLNDVYVYWQTSESKTVVTYHIPQSSSLEYVDSRYRNRALMSPAGMLRGDFSLRLFNVTPQDEQKFHCLVLSVSLGFQEVLSVEVTLHVAANFSVGSGGGGSEPKSSDKTHTCPPCPAPEAEGAPSVFLFPPKPKDTLMISRTPEVTCVVVDVSHEDPEVKFNWYVDGVEVHNAKTKPREEQYNSTYRVVSVLTVLHQDWLNGKEYKCKVSNKALPAPIEKTISKAKGQPREPQVYTLPPSREEMTKNQVSLTCLVKGFYPSDIAVEWESNGQPENNYKTTPPVLDSDGSFFLYSKLTVDKSRWQQGNVFSCSVMHEALHNHYTQKSLSLSPG
[A] 305000
